target: H723R-pendrin (Homo sapiens, UniProt O43511, H723R); test: YFP fluorescence quenching assay (Cl−/I− exchange activity of pendrin); settings: PANC-1 cells stably expressing human H723R-pendrin and YFP-F46L/H148Q/I152L; compound incubation 20-24 hours; iodide influx
Sequence (O43511 whole entry H723R): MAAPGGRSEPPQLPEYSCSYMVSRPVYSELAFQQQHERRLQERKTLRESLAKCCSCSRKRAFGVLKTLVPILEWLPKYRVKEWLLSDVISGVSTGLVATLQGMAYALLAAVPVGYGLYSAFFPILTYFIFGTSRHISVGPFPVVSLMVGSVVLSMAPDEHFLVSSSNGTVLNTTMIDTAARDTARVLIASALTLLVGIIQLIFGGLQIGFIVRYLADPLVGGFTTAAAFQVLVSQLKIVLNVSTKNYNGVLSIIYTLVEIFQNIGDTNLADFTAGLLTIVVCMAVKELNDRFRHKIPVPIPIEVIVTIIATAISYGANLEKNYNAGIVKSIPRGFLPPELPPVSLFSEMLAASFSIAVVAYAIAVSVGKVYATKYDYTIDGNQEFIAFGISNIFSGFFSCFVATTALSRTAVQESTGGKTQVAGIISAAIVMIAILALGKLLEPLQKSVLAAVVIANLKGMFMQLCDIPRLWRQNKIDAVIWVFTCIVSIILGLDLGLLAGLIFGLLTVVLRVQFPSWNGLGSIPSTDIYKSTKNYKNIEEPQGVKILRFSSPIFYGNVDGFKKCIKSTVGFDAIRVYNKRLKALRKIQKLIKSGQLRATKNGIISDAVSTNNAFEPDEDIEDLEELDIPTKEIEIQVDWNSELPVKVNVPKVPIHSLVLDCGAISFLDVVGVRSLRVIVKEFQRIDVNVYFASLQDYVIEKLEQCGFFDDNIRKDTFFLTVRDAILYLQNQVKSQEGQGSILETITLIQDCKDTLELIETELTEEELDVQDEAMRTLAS
pEC50: −log10 of the molar value.
assay endpoint: pEC50

These recorded examples may help you get a feel for the data.
* NC1=C(c2cncc(-c3ccc(O)c(O)c3)n2)C(=O)CN1c1ccccc1F [Compound 78] | > 5.30
* COc1cc(-c2cncc(C3=C(N)N(c4ccccc4Cl)CC3=O)n2)ccc1O [Compound 28] | > 5.30
* COCCOc1cc(-c2cncc(C3=C(N)N(CC4CCCC4)CC3=O)n2)ccc1O [Compound 99] | > 5.30
* NC1=C(c2cncc(-c3ccc(O)c(O)c3)n2)C(=O)CN1c1ccccc1O [Compound 43] | < 5.00
* NC1=C(c2cncc(-c3ccc(O)c(O)c3)c2)C(=O)CN1CC1CCCC1 [Compound 54] | < 5.00
* NC1=C(c2cnc(-c3ccc(O)c(O)c3)cn2)C(=O)CN1c1ccccc1Cl [Compound 35] | < 5.00

Form field: reported pEC50 of NC1=C(c2cncc(-c3ccc(OC(F)(F)F)c(O)c3)n2)C(=O)CN1c1ccccc1Cl [Compound 31] < 5.00

Reported pEC50 for COc1ccc(-c2cncc(C3=C(N)N(C4CCC(F)(F)C4)CC3=O)n2)cc1OC (centres unmarked) [Compound 61] : what is it? < 5.00

Source of measurements: patent US20250340537A1
